ASSAYED_SYSTEM: Muscarinic acetylcholine receptors; M1 & M2 (Homo sapiens) (UniProt P11229+P08172)
PROTOCOL: Selectivity ratio for M1 muscarinic receptor compared to M2 muscarinic receptor.
Format: protein assay
MEASUREMENT_KIND: Ratio

Study these solved cases before continuing.
                                   molecule  measurement_kind  recorded_number
0  CCOC(=O)N1CCC(N2CCC(C(=O)c3ccc(S(=O)(=O)c4ccc(OC)cc4)cc3)CC2)CC1             Ratio             26.8
1  CCOC(=O)N1CCC(N2CCC(C(=O)c3ccc(S(=O)(=O)c4ccc5c(c4)OCO5)cc3)CC2)CC1             Ratio             47.6
2  CCOC(=O)N1CCC(N2CCC(C3(c4ccc(S(=O)(=O)c5ccc(OC)cc5)cc4)OCCO3)CC2)CC1             Ratio             28.3
3  C=C(c1ccc(S(=O)(=O)c2ccc(OC)cc2)cc1)C1CCN(C2CCN(C(=O)OCC)CC2)CC1             Ratio             68.3

[I] CCOC(=O)N1CCC(N2CCC(C3(c4ccc(S(=O)(=O)c5ccc(OC)cc5)cc4)SCCCS3)CC2)CC1
[II] CCCS(=O)(=O)N1CCC(N2CCC(C3(c4ccc([S+]([O-])c5ccc6c(c5)OCO6)cc4)SCCS3)CC2)CC1 (stereo not drawn)
Q: Field: entry with larger Ratio (options I / II ). # reply format: chosen label
Ans: II

[1] CCOC(=O)N1CCC(N2CCC(C3(c4ccc(S(=O)(=O)c5ccc(OC)cc5)cc4)SCCS3)CC2)CC1
[2] CCCS(=O)(=O)N1CCC(N2CCC(C3(c4ccc([S+]([O-])c5ccc6c(c5)OCO6)cc4)O[C@H](C)[C@@H](C)O3)CC2)CC1 (stereo partly drawn)
Q: Lab note: record which item had the higher Ratio, 1 or 2 . Refer to your chosen entry by its label in the reply.
Ans: 1
(1: 22.5, 2: 7.5)

* * *

ASSAYED_SYSTEM: Muscarinic acetylcholine receptors; M1 & M2 (Homo sapiens) (UniProt P11229+P08172)
PROTOCOL: Selectivity ratio for M1 muscarinic receptor compared to M2 muscarinic receptor.
Type: protein assay
MEASUREMENT_KIND: Ratio

>>> df
                    structure_smiles_string  recorded_number
0  CCCS(=O)(=O)N1CCC(N2CCC(C3(c4ccc(S(=O)(=O)c5ccc6c(c5)OCO6)cc4)O[C@H](C)[C@@H](C)O3)CC2)CC1              8.7

[I] CCCS(=O)(=O)N1CCC(N2CCC(C(=O)c3ccc(S(=O)(=O)c4ccc5c(c4)OCO5)cc3)CC2)CC1
[II] CCOC(=O)N1CCC(N2CCC(C3(c4ccc(S(=O)(=O)c5ccc(OC)cc5)cc4)OCCCO3)CC2)CC1
Q: Lower value for measured Ratio? Options: I , II Kindly give the label for the entry you pick.
Ans: II
(II: 21, I: 42.6)

* * *

ASSAYED_SYSTEM: Muscarinic acetylcholine receptors; M2 & M3 (Homo sapiens) (UniProt P20309+P08172)
PROTOCOL: Selectivity ratio for M3 muscarinic receptor compared to M2 muscarinic receptor.
Type: protein assay
MEASUREMENT_KIND: Ratio

Use these answered entries as a reference point.
>>> print(df.to_string())
                                   compound  recorded_number
0  CCOC(=O)N1CCC(N2CCC(C3(c4ccc(S(=O)(=O)c5ccc6c(c5)OCO6)cc4)O[C@@H](C)[C@H](C)O3)CC2)CC1              6.1
1  CCCS(=O)(=O)N1CCC(N2CCC(C3(c4ccc([S+]([O-])c5ccc6c(c5)OCO6)cc4)SCCS3)CC2)CC1 (centres undefined)             12.8

[A] CCOC(=O)N1CCC(N2CCC(C(=O)c3ccc(S(=O)(=O)c4ccc5c(c4)OCO5)cc3)CC2)CC1
[B] CCOC(=O)N1CCC(N2CCC(C3(c4ccc(S(=O)(=O)c5ccc(OC)cc5)cc4)SCCS3)CC2)CC1
Q: Please compare: A and B . Report which one has the smaller Ratio value. Return value: the label identifying the chosen record.
Ans: B

* * *

ASSAYED_SYSTEM: Muscarinic acetylcholine receptors; M2 & M3 (Homo sapiens) (UniProt P20309+P08172)
PROTOCOL: Selectivity ratio for M3 muscarinic receptor compared to M2 muscarinic receptor.
Format: protein assay
MEASUREMENT_KIND: Ratio

In [3]: df
Out[3]:
                                   compound  recorded_number
0  CCOC(=O)N1CCC(N2CCC(C3(c4ccc(S(=O)(=O)c5ccc6c(c5)OCO6)cc4)OCCO3)CC2)CC1              1.3
1  CCOC(=O)N1CCC(N2CCC(C3(c4ccc(S(=O)(=O)c5ccc(OC)cc5)cc4)OCCCO3)CC2)CC1             14.4
2  CCCS(=O)(=O)N1CCC(N2CCC(C3(c4ccc([S+]([O-])c5ccc6c(c5)OCO6)cc4)CCCO3)CC2)CC1 (stereo unspecified)              0.5
3  CCOC(=O)N1CCC(N2CCC(C(=O)c3ccc(S(=O)(=O)c4ccc(OC)cc4)cc3)CC2)CC1             10.2
4  CCCS(=O)(=O)N1CCC(N2CCC(C3(c4ccc(S(=O)(=O)c5ccc6c(c5)OCO6)cc4)O[C@H](C)[C@@H](C)O3)CC2)CC1             46.1

[1] CCCS(=O)(=O)N1CCC(N2CCC(C(=O)c3ccc([S+]([O-])c4ccc5c(c4)OCO5)cc3)CC2)CC1 (stereo unspecified)
[2] CCCS(=O)(=O)N1CCC(N2CCC(C3(c4ccc(S(=O)(=O)c5ccc6c(c5)OCO6)cc4)CCCO3)CC2)CC1 (stereo unspecified)
Q: Of 1 and 2 , which carries the smaller reported Ratio figure? Pick one and reply with its label.
Ans: 2
(2: 0.24, 1: 11.8)

* * *

ASSAYED_SYSTEM: Muscarinic acetylcholine receptor M2 (Homo sapiens, UniProt P08172)
Sequence (P08172 whole entry): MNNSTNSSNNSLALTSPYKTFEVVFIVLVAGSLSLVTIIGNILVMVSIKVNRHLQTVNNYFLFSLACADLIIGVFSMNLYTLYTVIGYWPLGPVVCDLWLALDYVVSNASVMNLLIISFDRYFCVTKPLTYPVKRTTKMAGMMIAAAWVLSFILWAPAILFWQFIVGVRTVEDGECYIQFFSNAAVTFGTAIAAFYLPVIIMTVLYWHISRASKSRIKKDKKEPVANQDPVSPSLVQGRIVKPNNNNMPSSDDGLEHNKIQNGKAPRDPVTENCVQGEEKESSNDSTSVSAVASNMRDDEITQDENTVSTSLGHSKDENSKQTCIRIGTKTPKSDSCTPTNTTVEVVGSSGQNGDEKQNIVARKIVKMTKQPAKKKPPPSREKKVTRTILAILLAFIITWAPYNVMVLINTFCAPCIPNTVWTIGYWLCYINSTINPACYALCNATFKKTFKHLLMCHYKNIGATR
PROTOCOL: Binding affinity at human cloned acetylcholine receptor M2 in CHO cells.
pKi: −log10 of the molar value.
MEASUREMENT_KIND: pKi

Below: 8 compounds and their reported pKi.
>>> print(df.to_string())
                                   compound  measurement_kind  recorded_number
0  CCOC(=O)N1CCC(N2CCC(C3(c4ccc(S(=O)(=O)c5ccc(OC)cc5)cc4)OCCCO3)CC2)CC1               pKi             9.14
1  CCOC(=O)N1CCC(N2CCC(C(=O)c3ccc(S(=O)(=O)c4ccc(OC)cc4)cc3)CC2)CC1               pKi             8.54
2  CCOC(=O)N1CCC(N2CCC(C3(c4ccc(S(=O)(=O)c5ccc6c(c5)OCO6)cc4)O[C@H](C)[C@@H](C)O3)CC2)CC1               pKi            10.52
3  CCCS(=O)(=O)N1CCC(N2CCC(C3(c4ccc([S+]([O-])c5ccc6c(c5)OCO6)cc4)OCCO3)CC2)CC1 (stereo unspecified)               pKi             9.08
4  CCCS(=O)(=O)N1CCC(N2CCC(C3(c4ccc([S+]([O-])c5ccc6c(c5)OCO6)cc4)O[C@H](C)[C@@H](C)O3)CC2)CC1 (stereo partly specified)               pKi             8.04
5  CCCS(=O)(=O)N1CCC(N2CCC(C3(c4ccc([S+]([O-])c5ccc6c(c5)OCO6)cc4)CCCO3)CC2)CC1 (stereo unspecified)               pKi             7.92
6  CCCS(=O)(=O)N1CCC(N2CCC(C3(c4ccc(S(=O)(=O)c5ccc6c(c5)OCO6)cc4)SCCS3)CC2)CC1               pKi            10.51
7  CCCS(=O)(=O)N1CCC(N2CCC(C(=O)c3ccc([S+]([O-])c4ccc5c(c4)OCO5)cc3)CC2)CC1 (stereo unspecified)               pKi             7.46

[I] CCOC(=O)N1CCC(N2CCC(C3(c4ccc(S(=O)(=O)c5ccc6c(c5)OCO6)cc4)OCCO3)CC2)CC1
[II] CCCS(=O)(=O)N1CCC(N2CCC(C(=O)c3ccc(S(=O)(=O)c4ccc5c(c4)OCO5)cc3)CC2)CC1
Q: I would appreciate it if you could say which entry, I or II , has the lower pKi value. State your choice using its label.
Ans: II
(II: 8.99, I: 10.14)

[1] C=C(c1ccc(S(=O)(=O)c2ccc(OC)cc2)cc1)C1CCN(C2CCN(C(=O)OCC)CC2)CC1
[2] CCOC(=O)N1CCC(N2CCC(C3(c4ccc(S(=O)(=O)c5ccc(OC)cc5)cc4)OCCO3)CC2)CC1
Q: Could you point out whether the larger pKi belongs to 1 or to 2 ? // caller expects the label of the chosen entry
Ans: 1
(1: 10.15, 2: 9.80)
